System: Haemonchus contortus
method.description: Percent of Haemonchus destroyed or expelled in infected sheep (egg count after treatment)
Format: in vivo, Haemonchus contortus (in sheep)
condition.description: Haemonchus contortus, sheep, 15 mg/kg; Table V; read-out: Effectiveness at 15 mg/kg against Haemonchus
Protocol: Two groups of sheep were used in the tests. One group was used as a non-medicated control, while the other group was treated with the compound under investigation. Helminth-free young lambs were infected with about 10,000 filariform larvae of Haemonchus contortus. […] The egg count was carried out using the following modified Stoll method. […] The ova were then counted under a microscope equipped with 10X ocular and 10X objective lens. […]
Reported inhibition in vivo at 15 mg/kg values follow for various compounds

Some entries whose results are on file:
INSERT INTO measurements (compound, property_name, result) VALUES
  ('Cc1c([N+](=O)[O-])cc(C(C)(C)C)c(O)c1C(=O)Nc1ccc(Br)cc1 [Example 8]', 'inhibition in vivo at 15 mg/kg', '61%'),
  ('Cc1c([N+](=O)[O-])cc(C(C)(C)C)c(O)c1C(=O)Nc1ccc(Cl)cc1 [Example 7]', 'inhibition in vivo at 15 mg/kg', '81%'),
  ('Cc1c([N+](=O)[O-])cc(C(C)(C)C)c(O)c1C(=O)Nc1ccccc1C(F)(F)F [Example 14]', 'inhibition in vivo at 15 mg/kg', '0%');

# input for lookup
IN: Looking for the measured inhibition in vivo at 15 mg/kg of Cc1c([N+](=O)[O-])cc(C(C)(C)C)c(O)c1C(=O)Nc1cccc(C(F)(F)F)c1 [34 CF3 3'-substitution] , can you help?
OUT: 2%
